Target: MNK1 (Homo sapiens, UniProt Q9BUB5)
Sequence (Q9BUB5 whole entry): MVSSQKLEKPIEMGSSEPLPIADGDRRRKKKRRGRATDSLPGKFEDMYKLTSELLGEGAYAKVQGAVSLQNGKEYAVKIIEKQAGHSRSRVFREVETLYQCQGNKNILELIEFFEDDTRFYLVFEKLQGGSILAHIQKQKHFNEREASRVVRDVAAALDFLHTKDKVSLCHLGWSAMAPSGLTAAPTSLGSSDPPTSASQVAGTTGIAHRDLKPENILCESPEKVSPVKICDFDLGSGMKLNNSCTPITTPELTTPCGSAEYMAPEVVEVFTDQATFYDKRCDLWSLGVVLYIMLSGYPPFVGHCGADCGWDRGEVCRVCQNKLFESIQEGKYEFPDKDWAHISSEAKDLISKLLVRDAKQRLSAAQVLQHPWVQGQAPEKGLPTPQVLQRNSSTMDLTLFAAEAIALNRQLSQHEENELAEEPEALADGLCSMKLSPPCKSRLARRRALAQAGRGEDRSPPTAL
Test: Kinase profiling (radiometric filter-binding)
Format: biochemical
Settings: MNK1, 1 µM inhibitor; read-out: Residual activity, %
Square brackets hold non-standard residues; d marks the D form. Peptide text beside a SMILES is read from it. * marks the point of attachment. X3 = O=C(CCCCCNCc1nc2c(sc3cc(Br)cnc32)c(=O)[nH]1)*
Measure name: remaining activity at 1 µM (%)
Note: unit % is implicit; provide only the numeric part.

// below: answered compounds
INSERT INTO measurements (compound, system_tested, val) VALUES
  ('N=C(N)NCCC[C@@H](NC(=O)CNC(=O)[C@@H](CCCNC(=N)N)NC(=O)[C@@H](CCCNC(=N)N)NC(=O)CCCCCCCNCc1nc2c(sc3cc(Br)cnc32)c(=O)[nH]1)C(=O)N[C@H](CCCCN)C(N)=O', 'MNK1 (Homo sapiens, UniProt Q9BUB5)', 102),
  ('N=C(N)NCCC[C@@H](NC(=O)CCCCCNCc1nc2c(sc3cc(Br)cnc32)c(=O)[nH]1)C(=O)N[C@H](CCCNC(=N)N)C(=O)N[C@H](CCCNC(=N)N)C(=O)N[C@H](CCCNC(=N)N)C(=O)N[C@H](CCCNC(=N)N)C(=O)N[C@H](CCCNC(=N)N)C(=O)N[C@H](CCCCN)C(N)=O [ARC-3126, BPTP-Ahx-(D-Arg)6-D-Lys-NH2] (X3-[dR][dR][dR][dR][dR][dR][dK]-NH2)', 'MNK1 (Homo sapiens, UniProt Q9BUB5)', 89),
  ('N=C(N)NCCC[C@@H](NC(=O)CCCCCNC(=O)Cn1cnc2c(I)c(I)c(I)c(I)c21)C(=O)N[C@H](CCCNC(=N)N)C(=O)N[C@H](CCCNC(=N)N)C(=O)N[C@H](CCCNC(=N)N)C(=O)N[C@H](CCCNC(=N)N)C(=O)N[C@H](CCCNC(=N)N)C(=O)N[C@H](CCCCN)C(N)=O', 'MNK1 (Homo sapiens, UniProt Q9BUB5)', 67),
  ('N=C(N)NCCC[C@@H](NC(=O)CNC(=O)[C@@H](CCCNC(=N)N)NC(=O)[C@@H](CCCNC(=N)N)NC(=O)Cn1cc(CNCc2nc3c(sc4ccc(Br)cc43)c(=O)[nH]2)nn1)C(=O)N[C@H](CCCCN)C(N)=O', 'MNK1 (Homo sapiens, UniProt Q9BUB5)', 89);

Here is another compound to look at.
So, N=C(N)NCCC[C@@H](NC(=O)CNC(=O)[C@@H](CCCNC(=N)N)NC(=O)[C@@H](CCCNC(=N)N)NC(=O)CCCCCCCNCc1nc2c(sc3ccc(Br)cc32)c(=O)[nH]1)C(=O)N[C@H](CCCCN)C(N)=O ? Its remaining activity at 1 µM was 66

* * *

Molecular target: PIM3 (Homo sapiens, UniProt Q86V86)
Test: Binding/displacement assay with FA or TGLI readout
Set-up: made in house
Conditions: mean ± SEM, N = 2
Measure name: Kd (nM)
Note: unit nM is implicit; provide only the numeric part.

// below: answered compounds
INSERT INTO results (substance_smiles, unit_tag, val) VALUES
  ('CN1C(=CC=CC=CC2=[N+](CCCCCC(=O)NCCCC[C@@H](NC(=O)[C@@H](CCCNC(=N)N)NC(=O)CNC(=O)[C@@H](CCCNC(=N)N)NC(=O)[C@@H](CCCNC(=N)N)NC(=O)CCCCCCCNCc3nc4c(sc5ccc(Br)cc54)c(=O)[nH]3)C(N)=O)c3ccccc3C2(C)C)C(C)(C)c2ccccc21', 'nM', 2.6),
  ('N=C(N)NCCC[C@@H](NC(=O)CNC(=O)[C@@H](CCCNC(=N)N)NC(=O)[C@@H](CCCNC(=N)N)NC(=O)CCCCc1cn(Cc2nc3c(sc4ccc(Br)cc43)c(=O)[nH]2)nn1)C(=O)N[C@H](CCCCN)C(N)=O', 'nM', 6.6);

Here is another compound to look at.
Sample CN(C)c1ccc2c(c1)Oc1cc(N(C)C)ccc1C21OC(=O)c2cc(C(=O)NCCCC[C@@H](NC(=O)[C@@H](CCCNC(=N)N)NC(=O)CNC(=O)[C@@H](CCCNC(=N)N)NC(=O)[C@@H](CCCNC(=N)N)NC(=O)CCCCc3cn(Cc4nc5c(sc6ccc(Br)cc65)c(=O)[nH]4)nn3)C(N)=O)ccc21 , system: PIM3 (Homo sapiens, UniProt Q86V86). Its Kd is 15.7

* * *

Biological target: LKB1 (Homo sapiens)
Sequence (Q15831 1-433): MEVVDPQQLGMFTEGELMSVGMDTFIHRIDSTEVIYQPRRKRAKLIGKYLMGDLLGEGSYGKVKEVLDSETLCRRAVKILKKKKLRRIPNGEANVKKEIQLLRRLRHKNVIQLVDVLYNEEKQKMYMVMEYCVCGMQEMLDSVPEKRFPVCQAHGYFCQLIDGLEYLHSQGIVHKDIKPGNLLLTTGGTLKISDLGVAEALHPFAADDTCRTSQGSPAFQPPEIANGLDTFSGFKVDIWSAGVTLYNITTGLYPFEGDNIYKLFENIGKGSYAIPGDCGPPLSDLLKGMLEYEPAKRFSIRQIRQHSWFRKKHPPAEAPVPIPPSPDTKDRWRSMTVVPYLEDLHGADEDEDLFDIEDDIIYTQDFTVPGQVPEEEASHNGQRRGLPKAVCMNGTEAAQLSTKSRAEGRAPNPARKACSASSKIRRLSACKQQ
Sequence (Q7RTN6 1-431 partner): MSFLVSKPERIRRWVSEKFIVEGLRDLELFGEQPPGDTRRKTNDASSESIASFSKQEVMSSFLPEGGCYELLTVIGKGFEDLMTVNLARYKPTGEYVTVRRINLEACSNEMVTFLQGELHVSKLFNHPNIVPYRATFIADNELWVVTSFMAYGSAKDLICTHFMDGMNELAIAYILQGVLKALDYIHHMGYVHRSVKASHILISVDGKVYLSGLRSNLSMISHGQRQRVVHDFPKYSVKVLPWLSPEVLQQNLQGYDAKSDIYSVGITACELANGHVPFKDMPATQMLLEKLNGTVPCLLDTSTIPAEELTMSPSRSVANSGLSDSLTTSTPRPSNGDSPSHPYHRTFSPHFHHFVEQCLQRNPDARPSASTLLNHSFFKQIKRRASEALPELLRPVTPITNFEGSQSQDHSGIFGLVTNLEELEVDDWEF
Sequence (Q9Y376 1-341 partner): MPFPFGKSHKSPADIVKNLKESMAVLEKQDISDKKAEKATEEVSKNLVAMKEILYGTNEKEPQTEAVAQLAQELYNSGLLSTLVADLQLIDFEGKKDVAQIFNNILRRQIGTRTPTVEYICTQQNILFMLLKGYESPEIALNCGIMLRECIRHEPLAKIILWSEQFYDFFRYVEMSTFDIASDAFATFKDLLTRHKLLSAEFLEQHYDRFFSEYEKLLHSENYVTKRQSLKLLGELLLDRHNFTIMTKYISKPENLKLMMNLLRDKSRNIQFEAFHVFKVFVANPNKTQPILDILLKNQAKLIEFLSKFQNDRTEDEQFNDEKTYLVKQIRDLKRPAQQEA
Assay: Kinase profiling (radiometric filter-binding)
Assay type: biochemical
Conditions: LKB1, 1 µM inhibitor; read-out: Residual activity, %
Measure name: remaining activity at 1 µM (%)
Note: unit % is implicit; provide only the numeric part.

So, N=C(N)NCCC[C@@H](NC(=O)CCCCCNC(=O)Cn1cnc2c(I)c(I)c(I)c(I)c21)C(=O)N[C@H](CCCNC(=N)N)C(=O)N[C@H](CCCNC(=N)N)C(=O)N[C@H](CCCNC(=N)N)C(=O)N[C@H](CCCNC(=N)N)C(=O)N[C@H](CCCNC(=N)N)C(=O)N[C@H](CCCCN)C(N)=O ? Its remaining activity at 1 µM was 49

So, N=C(N)NCCC[C@@H](NC(=O)CNC(=O)[C@@H](CCCNC(=N)N)NC(=O)[C@@H](CCCNC(=N)N)NC(=O)CCCCCCCNCc1nc2c(sc3ccc(Br)cc32)c(=O)[nH]1)C(=O)N[C@H](CCCCN)C(N)=O ? Its remaining activity at 1 µM was 118

So, N=C(N)NCCC[C@@H](NC(=O)CNC(=O)[C@@H](CCCNC(=N)N)NC(=O)[C@@H](CCCNC(=N)N)NC(=O)CCCCCCCNCc1nc2c(sc3cc(Br)cnc32)c(=O)[nH]1)C(=O)N[C@H](CCCCN)C(N)=O ? Its remaining activity at 1 µM was 107

* * *

Target: ULK1 (Homo sapiens)
Sequence (O75385 1-1050): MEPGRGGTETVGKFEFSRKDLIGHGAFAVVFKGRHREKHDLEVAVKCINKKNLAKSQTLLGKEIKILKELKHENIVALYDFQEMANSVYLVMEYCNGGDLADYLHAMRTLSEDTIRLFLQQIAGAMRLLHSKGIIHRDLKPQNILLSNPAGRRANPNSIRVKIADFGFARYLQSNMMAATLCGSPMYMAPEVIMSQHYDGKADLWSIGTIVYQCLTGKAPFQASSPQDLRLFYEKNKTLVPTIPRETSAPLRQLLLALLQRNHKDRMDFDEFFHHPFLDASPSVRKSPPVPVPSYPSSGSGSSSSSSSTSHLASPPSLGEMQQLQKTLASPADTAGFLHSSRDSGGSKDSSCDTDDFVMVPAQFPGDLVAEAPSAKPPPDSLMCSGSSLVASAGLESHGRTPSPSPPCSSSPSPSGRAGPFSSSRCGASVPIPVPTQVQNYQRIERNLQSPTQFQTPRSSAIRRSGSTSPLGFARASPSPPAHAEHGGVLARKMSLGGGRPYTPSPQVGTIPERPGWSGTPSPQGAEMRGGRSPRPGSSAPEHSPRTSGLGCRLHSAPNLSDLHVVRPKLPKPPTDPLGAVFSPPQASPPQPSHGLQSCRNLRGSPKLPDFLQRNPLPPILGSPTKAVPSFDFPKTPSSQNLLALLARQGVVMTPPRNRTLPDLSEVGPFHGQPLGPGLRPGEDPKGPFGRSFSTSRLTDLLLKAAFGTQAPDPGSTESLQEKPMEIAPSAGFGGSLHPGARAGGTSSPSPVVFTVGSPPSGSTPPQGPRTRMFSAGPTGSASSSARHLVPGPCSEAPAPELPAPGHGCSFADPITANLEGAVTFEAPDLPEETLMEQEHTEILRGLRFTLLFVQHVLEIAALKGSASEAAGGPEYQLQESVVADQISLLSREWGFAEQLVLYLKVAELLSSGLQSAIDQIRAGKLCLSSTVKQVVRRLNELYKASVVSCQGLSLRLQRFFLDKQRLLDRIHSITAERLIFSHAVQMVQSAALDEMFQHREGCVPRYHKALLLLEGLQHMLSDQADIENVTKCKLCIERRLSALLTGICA
Experiment: Kinase profiling (radiometric filter-binding)
Assay type: biochemical
Settings: ULK1, 1 µM inhibitor; read-out: Residual activity, %
Measure name: remaining activity at 1 µM (%)
Note: unit % is implicit; provide only the numeric part.

// below: answered molecules
INSERT INTO results (substance_smiles, val) VALUES
  ('N=C(N)NCCC[C@@H](NC(=O)CNC(=O)[C@@H](CCCNC(=N)N)NC(=O)[C@@H](CCCNC(=N)N)NC(=O)CCCCCCCNCc1nc2c(sc3ccc(Br)cc32)c(=O)[nH]1)C(=O)N[C@H](CCCCN)C(N)=O', 99),
  ('N=C(N)NCCC[C@@H](NC(=O)CCCCCNC(=O)Cn1cnc2c(I)c(I)c(I)c(I)c21)C(=O)N[C@H](CCCNC(=N)N)C(=O)N[C@H](CCCNC(=N)N)C(=O)N[C@H](CCCNC(=N)N)C(=O)N[C@H](CCCNC(=N)N)C(=O)N[C@H](CCCNC(=N)N)C(=O)N[C@H](CCCCN)C(N)=O', 89);

Here is another molecule to look at.
So, N=C(N)NCCC[C@@H](NC(=O)CNC(=O)[C@@H](CCCNC(=N)N)NC(=O)[C@@H](CCCNC(=N)N)NC(=O)CCCCCCCNCc1nc2c(sc3cc(Br)cnc32)c(=O)[nH]1)C(=O)N[C@H](CCCCN)C(N)=O ? Its remaining activity at 1 µM was 107
